I'd be grateful if you could share measured Ki for these entries.
# systemTested: UniProt P34972
# Sequence (P34972 whole entry): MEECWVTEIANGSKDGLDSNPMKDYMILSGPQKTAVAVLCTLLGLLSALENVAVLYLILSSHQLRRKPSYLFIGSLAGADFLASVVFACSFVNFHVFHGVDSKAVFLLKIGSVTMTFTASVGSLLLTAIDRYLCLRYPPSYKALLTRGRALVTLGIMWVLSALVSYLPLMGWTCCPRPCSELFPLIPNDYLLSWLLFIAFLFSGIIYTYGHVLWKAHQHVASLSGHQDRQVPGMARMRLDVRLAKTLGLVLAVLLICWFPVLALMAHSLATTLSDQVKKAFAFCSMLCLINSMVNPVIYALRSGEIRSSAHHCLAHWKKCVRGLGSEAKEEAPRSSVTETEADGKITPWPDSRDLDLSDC
# assayMethodText: Displacement of [3H]CP55940 from human recombinant CB2 receptor transfected in HEK cell membranes

Report Ki for "CC1(C)C2CC[C@](C)(C2)[C@@H]1NC(=O)c1cnc2cc(F)ccc2c1O" tested on UniProt P34972.
957 nM

For "CCCCCn1cc(C(=O)NC(C)C)c(=O)c2ccc(Sc3ccccc3)cc21" then?
14.8 nM

For "CCCn1cc(C(=O)N[C@@H]2C(C)(C)C3CC[C@]2(C)C3)c(=O)c2ccc(F)cc21" then?
2.9 nM

For "CCCCCn1cc(C(=O)NCc2ccc(Cl)c(Cl)c2)c(=O)c2ccc(-c3ccccc3)cc21" then?
> 10000 nM

For "C=Cn1cc(C(=O)N[C@@H]2C(C)(C)C3CC[C@]2(C)C3)c(=O)c2ccc(F)cc21" then?
15.2 nM

For "CCn1cc(C(=O)N[C@@H]2C(C)(C)C3CC[C@]2(C)C3)c(=O)c2ccc(F)cc21" then?
7.3 nM

For "CCCCCn1cc(C(=O)N[C@@H]2C(C)(C)C3CC[C@]2(C)C3)c(=O)c2ccc(F)cc21" then?
0.3 nM

For CCCCCn1cc(C(=O)NC2CN3CCC2CC3)c(=O)c2ccc(Sc3ccccc3)cc21 (centres undefined) then?
89.1 nM

For "CCCCCn1cc(C(=O)NCc2ccc(Cl)c(Cl)c2)c(=O)c2ccc(Br)cc21" then?
130 nM
